- experimental.target: MK-3 (Homo sapiens, UniProt Q16644)
- Sequence (Q16644 whole entry, species assumed): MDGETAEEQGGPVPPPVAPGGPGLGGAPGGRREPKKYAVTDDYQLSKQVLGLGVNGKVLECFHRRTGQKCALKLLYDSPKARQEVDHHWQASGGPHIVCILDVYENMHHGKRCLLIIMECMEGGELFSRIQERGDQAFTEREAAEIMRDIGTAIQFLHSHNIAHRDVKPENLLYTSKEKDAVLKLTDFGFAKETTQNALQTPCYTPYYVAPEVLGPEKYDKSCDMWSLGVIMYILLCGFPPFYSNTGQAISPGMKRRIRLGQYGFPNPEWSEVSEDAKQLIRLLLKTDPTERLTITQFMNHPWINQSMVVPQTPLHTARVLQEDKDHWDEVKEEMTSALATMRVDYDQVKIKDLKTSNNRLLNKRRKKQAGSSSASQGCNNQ
- procedure.text: MK-3 inhibition IC50 (similar method to MK-2, with appropriate modifications)
- Format: biochemical
- measurement.context: Table 2, pyrazolylpyrazole MK-2 inhibitors; read-out: MK-3 Avg. IC50
pIC50: −log10 of the molar value.
readout: pIC50

// solved cases for pIC50 follow
smiles.code: NC(=O)c1ccc(-n2nc(C(N)=O)c3c2-c2cn[nH]c2CC3)cc1
pIC50: ≤ 3.70
//
smiles.code: C=CCSc1n[nH]c2c1-c1nn(CCCN)c(C(=O)OCC)c1CC2
pIC50: ≤ 3.70
//
smiles.code: C=CCn1nc2c(c1C(=O)OCC)CCc1c-2cnn1C(c1ccccc1)(c1ccccc1)c1ccccc1
pIC50: ≤ 3.70
//
smiles.code: CCOC(=O)c1[nH]nc2c1CCc1c-2cnn1CCO
pIC50: ≤ 3.70
//
smiles.code: O=C(O)c1c2c(nn1CCCNCCc1cccs1)-c1cn[nH]c1CC2
pIC50: 4.26

Measured pIC50 for this entry `O=C(O)c1c2c(nn1CCO)-c1cn[nH]c1CC2` on MK-3 (Homo sapiens, UniProt Q16644): ≤ 3.70

---

- experimental.target: MK-3 (Homo sapiens, UniProt Q16644)
- procedure.text: MK-3 inhibition IC50 (similar method to MK-2, with appropriate modifications)
- Assay type: biochemical
- measurement.context: Table 4, pyrimidylpyrazole MK-2 inhibitors; read-out: NK-3 Avg. IC50
# if measured IC50 < 10 µM: Satisfied  # else: Not satisfied

Solved cases below.
smiles.code: NCCCn1nc2c(c1C(=O)O)CCc1cnc(-c3ccccc3)nc1-2
group.label: Not satisfied

smiles.code: O=C1NCCCn2nc3c(c21)CCc1cnc(-c2cccnc2)nc1-3
group.label: Not satisfied

smiles.code: NCCCn1nc2c(c1C(=O)O)CCc1cnc(-c3ccc4c(c3)OCO4)nc1-2
group.label: Satisfied

smiles.code: NCCCn1nc2c(c1C(=O)O)CCc1cnc(-c3cnc4ccccc4c3)nc1-2
group.label: Satisfied

API: the following record is the query input.
### Prompt Is IC50 of `O=C(O)c1c2c(nn1CCCNC(c1ccccc1)(c1ccccc1)c1ccccc1)-c1nc(-c3cnc4ccccc4c3)ncc1CC2` strictly below 10 µM?
### Response Not satisfied

---

- experimental.target: MK-3 (Homo sapiens, UniProt Q16644)
- procedure.text: MK-3 inhibition IC50 (similar method to MK-2, with appropriate modifications)
- Assay type: biochemical
- measurement.context: Table 2, pyrazolylpyrazole MK-2 inhibitors; read-out: MK-3 Avg. IC50
pIC50: −log10 of the molar value.
As shown below, each of these compounds has a reported pIC50 value.

smiles.code: C=CCn1nc2c(c1C(N)=O)CCc1[nH]ncc1-2
observed: ≤ 3.70

Data point: `NC(=O)c1nn(-c2ccccc2)c2c1CCc1c-2cnn1Cc1ccccc1` ; pIC50 = ≤ 3.70

Data point: `NC(=O)c1[nH]nc2c1CCc1c-2cnn1-c1ccccc1` ; pIC50 = ≤ 3.70

Data point: `C=CCn1nc(C(N)=O)c2c1-c1cn[nH]c1CC2` ; pIC50 = 4.31

Data point: `O=C1NCCn2nc3c(c21)CCc1[nH]ncc1-3` ; pIC50 = 3.86

---

- experimental.target: MAPKAPK2 (MK-2) (Homo sapiens)
- procedure.text: Determination of MK-2 IC50 (HSP-peptide phosphorylation, anion exchange resin capture assay)
- Type: biochemical
- measurement.context: Table 2, pyrazolylpyrazole MK-2 inhibitors; read-out: MK-2 Avg. IC50
readout: pIC50
Formally, pIC50 is defined as -log10 of the concentration c, with c in mol/L.

Measured pIC50 for this entry `O=C1NCCn2nc3c(c21)CCc1[nH]ncc1-3` on MAPKAPK2 (MK-2) (Homo sapiens): 4.70

---

- experimental.target: MK-3 (Homo sapiens, UniProt Q16644)
- procedure.text: MK-3 inhibition IC50 (similar method to MK-2, with appropriate modifications)
- Type: biochemical
- measurement.context: Table 1, phenoxypyrazole MK-2 inhibitors; read-out: MK-3 Avg. IC50
As shown below, each of these molecules has a reported IC50 value.

// solved cases for IC50 follow
smiles.code: COC(=O)c1c2c(nn1CCCNC(=O)OC(C)(C)C)-c1ccc(OC)cc1CC2
readout: IC50
observed: > 200 µM
--
smiles.code: COc1ccc2c(c1)CCc1c(C(N)=O)nn(-c3ccc(S(N)(=O)=O)cc3)c1-2
readout: IC50
observed: > 200 µM
--
smiles.code: COC(=O)c1c2c(nn1CCNC(=O)OC(C)(C)C)-c1cc(Br)c(OC)cc1CC2
readout: IC50
observed: > 200 µM

Data point: `O=C(O)c1[nH]nc2c1CCc1cc(O)c(O)cc1-2` ; IC50 = > 200 µM

Data point: `NCCCn1nc2c(c1C(=O)O)CCc1cc(O)c(CCC(F)(F)F)cc1-2` ; IC50 = 149 µM

---

As shown below, each of these compounds has a reported pIC50 value.
- experimental.target: MAPKAPK2 (MK-2) (Homo sapiens, UniProt P49137)
- Sequence (P49137 whole entry, species assumed): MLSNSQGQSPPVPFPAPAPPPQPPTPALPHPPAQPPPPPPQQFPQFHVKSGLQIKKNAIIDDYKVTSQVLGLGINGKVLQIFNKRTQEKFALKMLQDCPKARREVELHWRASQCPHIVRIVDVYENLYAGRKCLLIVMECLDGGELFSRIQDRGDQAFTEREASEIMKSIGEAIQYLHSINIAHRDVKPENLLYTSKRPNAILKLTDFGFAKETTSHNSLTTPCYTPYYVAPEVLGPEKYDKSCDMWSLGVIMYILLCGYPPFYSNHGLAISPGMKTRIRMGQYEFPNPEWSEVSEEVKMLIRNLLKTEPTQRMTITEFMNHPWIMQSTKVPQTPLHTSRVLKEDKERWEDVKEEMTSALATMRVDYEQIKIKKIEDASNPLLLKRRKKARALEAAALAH
- procedure.text: Determination of MK-2 IC50 (HSP-peptide phosphorylation, anion exchange resin capture assay)
- Assay type: biochemical
- measurement.context: read-out: MK-2 Avg. IC50
Formally, pIC50 is defined as -log10 of the concentration c, with c in mol/L.

Data point: O=C(O)c1c2c(nn1CCCNCCc1ccc(Cl)s1)-c1ccncc1CC2 [Example 57] ; pIC50 = 6.25

Data point: O=C(O)c1c2c(nn1CCCNCCc1ccc(Br)cc1)-c1ccncc1CC2 [Example 46] ; pIC50 = 6.49

Data point: CC(C)(C)c1ccc(CCCNCCCn2nc3c(c2C(=O)O)CCc2cnccc2-3)cc1 [Example 39] ; pIC50 = 6.63

Data point: NCCCn1nc2c(c1C(=O)O)CCc1cnc(-c3ccc4c(c3)OCO4)cc1-2 [Example 7] ; pIC50 = 7.53

Data point: O=C(O)c1c2c(nn1CCCNCCCc1cccc(Cl)c1)-c1ccncc1CC2 [Example 35] ; pIC50 = 6.68

---

- experimental.target: MK-3 (Homo sapiens)
- procedure.text: MK-3 inhibition IC50 (similar method to MK-2, with appropriate modifications)
- Format: biochemical
- measurement.context: Table 1, phenoxypyrazole MK-2 inhibitors; read-out: MK-3 Avg. IC50
readout: IC50

// solved cases for IC50 follow
compound: COC(=O)c1c2c(nn1CCCNC(=O)OC(C)(C)C)-c1cc(Br)c(OC)cc1CC2 [Example 184]
IC50: > 200 µM

compound: NCCCn1nc2c(c1C(=O)O)CCc1cc(O)c(-c3ccc([N+](=O)[O-])cc3)cc1-2 [Example 9]
IC50: 104 µM

compound: COc1ccc2c(c1)CCc1c(C(=O)O)nn(-c3ccc(S(C)(=O)=O)cc3)c1-2 [Example 165]
IC50: > 200 µM

compound: CC(C)(C)OC(=O)NCCCn1nc2c(c1C(=O)O)CCc1cc(O)ccc1-2 [Example 72]
IC50: > 200 µM

compound: NCCCn1nc2c(c1C(=O)O)CCc1cc(O)c(-c3cccc(C(=O)O)c3)cc1-2 [Example 36]
IC50: > 200 µM

compound: CCOC(=O)c1nn(-c2ccc(S(N)(=O)=O)cc2)c2c1CCc1cc(OC)ccc1-2 [Example 178]
IC50: > 200 µM

compound: NCCCn1nc2c(c1C(=O)O)CCc1cc(O)c(Br)cc1-2 [Example 8]
IC50: > 200 µM

compound: COC(=O)c1nn(-c2ccc(S(N)(=O)=O)cc2)c2c1CCc1cc(OC)ccc1-2 [Example 172]
IC50: > 200 µM

compound: CC(C)(C)c1ccc(-c2cc3c(cc2O)CCc2c-3nn(CCCN)c2C(=O)O)cc1 [Example 22]
IC50: 120 µM

compound: COc1cc2c(cc1-c1ccc(Cl)cc1)-c1nn(CCCNC(=O)OC(C)(C)C)c(C(=O)O)c1CC2 [Example 49]
IC50: 161 µM

Data point: NCCn1nc2c(c1C(=O)O)CCc1cc(O)c(-c3cccc([N+](=O)[O-])c3)cc1-2 [Example 2] ; IC50 = 40.9 µM

Data point: C=CCC1Cc2c(C(=O)O)n[nH]c2-c2ccc(O)cc21 (stereo not drawn) [Example 60] ; IC50 = > 200 µM

---

- experimental.target: MK-3 (Homo sapiens)
- procedure.text: MK-3 inhibition IC50 (similar method to MK-2, with appropriate modifications)
- Type: biochemical
- measurement.context: Table 5, other cyclic pyrazole MK-2 inhibiting compounds; read-out: MK-3 Avg. IC50
pIC50: −log10 of the molar value.
readout: pIC50

// solved cases for pIC50 follow
smiles.code: O=C(O)c1c2c(nn1CCCNCCc1ccc(/C=C/c3ccccc3)cc1)-c1cc(/C=C/c3ccccc3)ncc1CC2
pIC50: < 4.70
--
smiles.code: O=C1NCCn2nc3c(c21)CCc1cnc(/C=C/c2cccc(Cl)c2)cc1-3
pIC50: < 4.70
--
smiles.code: O=C1NCCn2nc3c(c21)CCc1cnc(/C=C/c2ccc(F)cc2)cc1-3
pIC50: < 4.70

Here's the next entry for you.
Data point: `COc1ccc(/C=C/c2cc3c(cn2)CCc2c-3nn3c2C(=O)NCC3)cc1` ; pIC50 = < 3.70
